- ASSAY PROTOCOL: Compound toxicity, ATPLite total ATP levels
- Format: cell-based
- MEASUREMENT CONDITIONS: human, HepG2 cells; concentration reducing total ATP levels by 50% relative to no drug controls; ATPLite three days after compound addition
OUTCOME MEASURE: CC50 at 3 days

MOLECULAR STRING | MEASURED RESULT
O=C1NC[C@H](CNC(=O)c2cccc(S(=O)(=O)N[C@H]3CC4=C(c5ccn(C(F)F)n5)[C@H](c5ccc(F)cc5Cl)N=C(c5nccs5)N4C3)c2)O1 | > 25 µM
O=S(=O)(N[C@H]1CC2=C(c3ccn(C(F)F)n3)[C@H](c3ccc(F)cc3Cl)N=C(c3nccs3)N2C1)[C@H]1C[C@H](O)C1 | > 25 µM
O=S(=O)(N[C@H]1CC2=C(c3ccn(C(F)F)n3)[C@H](c3ccc(F)cc3Cl)N=C(c3nccs3)N2C1)N1C[C@@H](F)[C@@H](F)C1 | < 10 µM
C[C@]1(O)CC[C@H](c2ccc(S(=O)(=O)N[C@H]3CC4=C(c5ccn(C(F)F)n5)[C@H](c5ccc(F)cc5Cl)N=C(c5nccs5)N4C3)cc2)CC1 | 10 to 25 µM
O=S(=O)(N[C@H]1CC2=C(c3ccn(C(F)F)n3)[C@H](c3ccc(F)cc3Cl)N=C(c3nccs3)N2C1)N1CCC(O)(CO)CC1 | > 25 µM
O=S(=O)(N[C@H]1CC2=C(c3ccn(C(F)F)n3)[C@H](c3ccc(F)cc3Cl)N=C(c3nccs3)N2C1)N1CCCC1 | 10 to 25 µM
